Target: KRas G13D (Homo sapiens, UniProt P01116, G13D)
Sequence (P01116 1-169 isoform P01116-2 G13D): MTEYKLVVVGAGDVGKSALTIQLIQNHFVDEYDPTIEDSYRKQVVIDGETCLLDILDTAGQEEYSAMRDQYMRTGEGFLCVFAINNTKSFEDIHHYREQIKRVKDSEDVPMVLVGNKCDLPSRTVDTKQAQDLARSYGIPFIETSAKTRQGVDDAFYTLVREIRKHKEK
Format: binding
Settings: single point, 10 nM compound, read-out: Binding to KRas (% inhibition at 10 nM) G13D
Measure: inhibition at 0.01 µM (%)

Example cases with answers are listed next.
[
  {
    "Compound": "CCc1c(F)ccc2cc(O)cc(N3CCc4c(nc(OC[C@@]56CCCN5C[C@H](F)C6)nc4N4CCCn5nnc(Cl)c5C4)C3)c12",
    "Readout unit": "%",
    "Value reported": 86
  },
  {
    "Compound": "CCc1c(F)ccc2cc(O)cc(N3CCc4c(nc(OC[C@@]56CCCN5C[C@H](F)C6)nc4N4CCCn5nc(C(=O)N(C)C)c(COC)c5C4)C3)c12",
    "Readout unit": "%",
    "Value reported": 99
  }
]

1 = CCc1c(F)ccc2cc(O)cc(N3CCc4c(nc(OC[C@@]56CCCN5C[C@H](F)C6)nc4N4CCCn5nc(C(=O)N(C)C6CCC6)cc5C4)C3)c12
2 = CCNc1cc2n(n1)CCCN(c1nc(OC[C@@]34CCCN3C[C@H](F)C4)nc3c1CCN(c1cc(O)cc4ccc(F)c(CC)c14)C3)C2
Prompt: From the recorded data, which exceeds the other in inhibition at 0.01 µM: 1 or 2 ? In your reply, give the label of the chosen option.
Completion: 1
(1: 94%, 2: 60%)

---

Target: KRas G13D (Homo sapiens, UniProt P01116, G13D)
Assay type: binding
Settings: single point, 10 nM compound, read-out: Binding to KRas (% inhibition at 10 nM) G13D
Measure: inhibition at 0.01 µM (%)

[
  {
    "Molecule": "CCc1c(F)ccc2cc(O)cc(N3CCc4c(nc(OC[C@@]56CCCN5C[C@H](F)C6)nc4N4CCCn5nc(C(=O)N6C[C@@H](C)N[C@@H](C)C6)cc5C4)C3)c12 [Example 303]",
    "inhibition at 0.01 µM / %": 98
  }
]

A = CCc1c(F)ccc2cc(O)cc(N3CCc4c(nc(OC[C@@]56CCCN5C[C@H](F)C6)nc4N4CCCOCC4)C3)c12 [Example 420]
B = CCc1c(F)ccc2cc(O)cc(N3CCc4c(nc(OC[C@@]56CCCN5C[C@H](F)C6)nc4N4CCCn5nc(NC)c(OC)c5C4)C3)c12 [Example 393]
Prompt: Between A and B , which one has the lower reported inhibition at 0.01 µM value? In your reply, give the label of the chosen option.
Completion: B
(B: 64%, A: 95%)

---

Biological target: KRas G12R (Homo sapiens, UniProt P01116, G12R)
Sequence (P01116 1-169 isoform P01116-2 G12R): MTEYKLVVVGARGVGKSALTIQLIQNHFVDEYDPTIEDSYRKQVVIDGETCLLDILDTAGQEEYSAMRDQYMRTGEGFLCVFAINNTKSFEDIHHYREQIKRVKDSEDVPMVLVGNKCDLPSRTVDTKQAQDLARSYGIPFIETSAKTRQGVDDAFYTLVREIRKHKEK
Test: biochemical
Details: Binding to KRas (IC50 nM) G12R, TR-FRET displacement, KRas G12R
Measure: IC50 (nM)

a = O=C1NCC2(CCCN(c3nc(OCC45CCCN4CCC5)nc4c3CCN(c3cc(O)cc(Cl)c3C3CC3)C4)C2)N1 (stereo not drawn) [Example 442]
b = CCc1c(F)ccc2cc(O)cc(N3CCc4c(nc(OCC5(CN(C)C)CC5)nc4N4CCCC(c5cn(C)nn5)C4)C3)c12 (stereo not drawn) [Example 598]
Prompt: From the recorded data, which exceeds the other in IC50: a or b ? In your reply, give the label of the chosen option.
Completion: b
